assay: mn = molality of the nth substance listed, in mol/kg; conditions: 298.15 K; 101 kPa; Liquid; Alternating current cell with electrodes; m1 = 0.2
Measured Metric: electrical conductivity (S/m)

Compound	electrical conductivity, S/m
CC(C)[C@H](NC(=O)CN)C(=O)O [glycyl-L-valine] + O	0.0114
NCC(=O)N[C@@H](CCC(N)=O)C(=O)O [glycyl-l-glutamine] + O	0.0116
C[C@H](N)C(=O)N[C@@H](CCC(N)=O)C(=O)O [L-alanyl-L-glutamine] + O	0.0115
NCC(=O)NCC(=O)O [glycylglycine] + O	0.0115
CC(C)C[C@H](NC(=O)CN)C(=O)O [glycyl-L-leucine] + O	0.0113

---

assay: mn = molality of the nth substance listed, in mol/kg; conditions: 313.15 K; 101 kPa; Liquid; Alternating current cell with electrodes; m1 = 0.15
Measured Metric: electrical conductivity (S/m)

Compound	Unit Abbrev	electrical conductivity
C[C@H](N)C(=O)N[C@@H](CCC(N)=O)C(=O)O [L-alanyl-L-glutamine] + O	S/m	0.0112
NCC(=O)NCC(=O)O [glycylglycine] + O	S/m	0.0113
CC(C)C[C@H](NC(=O)CN)C(=O)O [glycyl-L-leucine] + O	S/m	0.011
CC(C)[C@H](NC(=O)CN)C(=O)O [glycyl-L-valine] + O	S/m	0.011

---

test: mn = molality of the nth substance listed, in mol/kg; details: 293.15 K; 101 kPa; Liquid; Alternating current cell with electrodes; m1 = 0.05
Measured Metric: electrical conductivity (S/m)

Compound	Unit Abbrev	electrical conductivity
CC(C)C[C@H](NC(=O)CN)C(=O)O [glycyl-L-leucine] + O	S/m	0.00321
CC(C)[C@H](NC(=O)CN)C(=O)O [glycyl-L-valine] + O	S/m	0.00323
C[C@H](N)C(=O)N[C@@H](CCC(N)=O)C(=O)O [L-alanyl-L-glutamine] + O	S/m	0.0034
NCC(=O)N[C@@H](CCC(N)=O)C(=O)O [glycyl-l-glutamine] + O	S/m	0.00342
NCC(=O)NCC(=O)O [glycylglycine] + O	S/m	0.00328

---

assay: mn = molality of the nth substance listed, in mol/kg; settings: 303.15 K; 101 kPa; Liquid; Alternating current cell with electrodes; m1 = 0.15
Measured Metric: electrical conductivity (S/m)

Molecule	Endpoint Value
CC(C)C[C@H](NC(=O)CN)C(=O)O [glycyl-L-leucine] + O	0.00889
NCC(=O)N[C@@H](CCC(N)=O)C(=O)O [glycyl-l-glutamine] + O	0.00902
NCC(=O)NCC(=O)O [glycylglycine] + O	0.00904
C[C@H](N)C(=O)N[C@@H](CCC(N)=O)C(=O)O [L-alanyl-L-glutamine] + O	0.009
CC(C)[C@H](NC(=O)CN)C(=O)O [glycyl-L-valine] + O	0.00891

---

assay: mn = molality of the nth substance listed, in mol/kg; settings: 313.15 K; 101 kPa; Liquid; Alternating current cell with electrodes; m1 = 0.2
Measured Metric: electrical conductivity (S/m)

Compound	electrical conductivity (S/m)
C[C@H](N)C(=O)N[C@@H](CCC(N)=O)C(=O)O [L-alanyl-L-glutamine] + O	0.0153
CC(C)C[C@H](NC(=O)CN)C(=O)O [glycyl-L-leucine] + O	0.0152
CC(C)[C@H](NC(=O)CN)C(=O)O [glycyl-L-valine] + O	0.0152
NCC(=O)NCC(=O)O [glycylglycine] + O	0.0155
